Quick list: Percentage inhibition of kinase enzyme activity per entry.
SYSTEM NAME: SPHK2 (Homo sapiens, UniProt Q9NRA0)
Construct: purchased Carna Biosciences
Sequence (Q9NRA0 whole entry): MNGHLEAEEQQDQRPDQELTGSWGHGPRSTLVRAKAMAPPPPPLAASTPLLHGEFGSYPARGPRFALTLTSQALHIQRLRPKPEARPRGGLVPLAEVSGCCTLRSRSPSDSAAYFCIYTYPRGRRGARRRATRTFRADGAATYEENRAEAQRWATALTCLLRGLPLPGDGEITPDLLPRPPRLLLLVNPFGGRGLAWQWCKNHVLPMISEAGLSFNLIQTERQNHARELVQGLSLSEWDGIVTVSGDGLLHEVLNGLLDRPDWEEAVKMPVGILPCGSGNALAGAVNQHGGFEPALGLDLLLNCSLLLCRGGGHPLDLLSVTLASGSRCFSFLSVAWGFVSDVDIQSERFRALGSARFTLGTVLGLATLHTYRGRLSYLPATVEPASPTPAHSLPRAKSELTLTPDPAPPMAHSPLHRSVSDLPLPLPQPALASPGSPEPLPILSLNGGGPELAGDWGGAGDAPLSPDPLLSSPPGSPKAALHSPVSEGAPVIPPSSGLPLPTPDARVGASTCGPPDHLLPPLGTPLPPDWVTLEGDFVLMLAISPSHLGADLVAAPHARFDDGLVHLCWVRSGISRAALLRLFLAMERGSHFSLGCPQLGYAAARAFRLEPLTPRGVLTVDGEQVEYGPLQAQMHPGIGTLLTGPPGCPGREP
METHOD NOTES: Kinase panel profiling at 1 µmol/L (mobility shift assay, Carna)
Type: biochemical
CONDITIONS: 1 µmol/L of BTK inhibitor
EXPERIMENTAL READOUT: Percentage inhibition of kinase enzyme activity (%)

# MOLECULE SMILES, SYSTEM NAME, VALUE UNITS, READOUT NUMBER
records = [
    ("COc1ccc(F)cc1C(=O)NCc1ccc(-c2nn([C@@H](C)C(F)(F)F)c(N)c2C(N)=O)cc1", "SPHK2 (Homo sapiens, UniProt Q9NRA0)", "%", -12.42),
    ("O=C(c1ccc(Oc2ccccc2)cc1Cl)c1c[nH]c2ncnc(N[C@@H]3CC[C@@H](CO)OC3)c12", "SPHK2 (Homo sapiens, UniProt Q9NRA0)", "%", 1.97),
    ("C=CC(=O)N1CCC[C@@H](n2nc(-c3ccc(Oc4ccccc4)cc3)c3c(N)ncnc32)C1", "SPHK2 (Homo sapiens, UniProt Q9NRA0)", "%", 9.66),
    ("CC#CC(=O)N1CCC[C@H]1c1nc(-c2ccc(C(=O)Nc3ccccn3)cc2)c2c(N)nccn12", "SPHK2 (Homo sapiens, UniProt Q9NRA0)", "%", 6.90),
]

----------
Quick list: Percentage inhibition of kinase enzyme activity per entry.
SYSTEM NAME: JNK1 (Homo sapiens)
Construct: purchased Carna Biosciences
Sequence (P45983 whole entry): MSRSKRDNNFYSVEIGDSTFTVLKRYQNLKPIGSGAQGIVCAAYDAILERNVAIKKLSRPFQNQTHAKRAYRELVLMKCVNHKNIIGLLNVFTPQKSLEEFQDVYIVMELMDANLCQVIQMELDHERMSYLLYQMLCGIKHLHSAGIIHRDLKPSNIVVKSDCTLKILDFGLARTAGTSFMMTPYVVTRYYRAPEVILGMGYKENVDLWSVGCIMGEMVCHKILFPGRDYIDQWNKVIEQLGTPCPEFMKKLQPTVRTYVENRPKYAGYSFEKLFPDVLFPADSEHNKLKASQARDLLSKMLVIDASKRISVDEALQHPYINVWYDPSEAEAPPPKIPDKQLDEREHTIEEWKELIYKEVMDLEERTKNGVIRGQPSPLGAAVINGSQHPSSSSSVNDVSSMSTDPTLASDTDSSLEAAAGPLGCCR
METHOD NOTES: Kinase panel profiling at 1 µmol/L (mobility shift assay, Carna)
Assay type: biochemical
CONDITIONS: 1 µmol/L of BTK inhibitor
EXPERIMENTAL READOUT: Percentage inhibition of kinase enzyme activity (%)

# COMPOUND, VALUE UNITS, READOUT NUMBER
data = [
    ("COc1ccc(F)cc1C(=O)NCc1ccc(-c2nn([C@@H](C)C(F)(F)F)c(N)c2C(N)=O)cc1 [pirtobrutinib]", "%", -0.29),
    ("O=C(c1ccc(Oc2ccccc2)cc1Cl)c1c[nH]c2ncnc(N[C@@H]3CC[C@@H](CO)OC3)c12 [nemtabrutinib]", "%", -3.89),
    ("C=CC(=O)N1CCC[C@@H](n2nc(-c3ccc(Oc4ccccc4)cc3)c3c(N)ncnc32)C1 [ibrutinib]", "%", -2.33),
    ("CC#CC(=O)N1CCC[C@H]1c1nc(-c2ccc(C(=O)Nc3ccccn3)cc2)c2c(N)nccn12 [acalabrutinib]", "%", -0.88),
]

----------
SYSTEM NAME: IKKε (Homo sapiens, UniProt Q14164)
Construct: purchased Carna Biosciences
Sequence (Q14164 whole entry): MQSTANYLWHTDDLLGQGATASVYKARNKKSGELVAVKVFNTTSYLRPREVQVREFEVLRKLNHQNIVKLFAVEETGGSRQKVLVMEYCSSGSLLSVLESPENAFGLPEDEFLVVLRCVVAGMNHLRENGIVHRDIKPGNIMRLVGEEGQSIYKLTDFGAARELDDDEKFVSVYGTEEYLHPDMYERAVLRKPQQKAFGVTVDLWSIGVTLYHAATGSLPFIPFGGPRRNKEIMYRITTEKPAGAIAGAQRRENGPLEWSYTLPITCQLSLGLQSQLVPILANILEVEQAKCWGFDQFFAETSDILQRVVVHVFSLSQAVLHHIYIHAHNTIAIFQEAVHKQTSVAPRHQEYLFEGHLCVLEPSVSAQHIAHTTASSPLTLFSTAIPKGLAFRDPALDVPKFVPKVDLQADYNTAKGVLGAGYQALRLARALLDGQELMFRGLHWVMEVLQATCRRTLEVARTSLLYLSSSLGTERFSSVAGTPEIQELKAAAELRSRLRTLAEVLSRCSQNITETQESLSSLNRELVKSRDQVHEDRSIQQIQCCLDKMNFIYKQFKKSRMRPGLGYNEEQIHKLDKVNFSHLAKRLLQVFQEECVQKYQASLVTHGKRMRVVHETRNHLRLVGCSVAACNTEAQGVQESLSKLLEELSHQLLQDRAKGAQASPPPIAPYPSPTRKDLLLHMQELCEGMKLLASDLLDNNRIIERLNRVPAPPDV
METHOD NOTES: Kinase panel profiling at 1 µmol/L (mobility shift assay, Carna)
Type: biochemical
CONDITIONS: 1 µmol/L of BTK inhibitor
Quick list: Percentage inhibition of kinase enzyme activity per entry.
EXPERIMENTAL READOUT: Percentage inhibition of kinase enzyme activity

# COMPOUND, RESULT
data = [
    ("C=CC(=O)N1CCC[C@@H](n2nc(-c3ccc(Oc4ccccc4)cc3)c3c(N)ncnc32)C1 [ibrutinib]", "-0.70%"),
    ("O=C(c1ccc(Oc2ccccc2)cc1Cl)c1c[nH]c2ncnc(N[C@@H]3CC[C@@H](CO)OC3)c12 [nemtabrutinib]", "11.64%"),
    ("COc1ccc(F)cc1C(=O)NCc1ccc(-c2nn([C@@H](C)C(F)(F)F)c(N)c2C(N)=O)cc1 [pirtobrutinib]", "5.28%"),
    ("CC#CC(=O)N1CCC[C@H]1c1nc(-c2ccc(C(=O)Nc3ccccn3)cc2)c2c(N)nccn12 [acalabrutinib]", "1.46%"),
]

Each recorded value in this set is attributed to paper PMC12586182.
